- System: HCV core protein (residues 1-106) dimerization
- measurement-description: blockers of core106 self-association – biochemical, TR-FRET, high-throughput, primary screen (AID 1899)
- recorded-conditions: TR-FRET GST/Flag-core106 dimerization, 1536-well; at 5 µM
The campaign covered roughly 300,000 compounds. About 1,000 (0.33%) were called active.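 The calls were made as follows: active = inhibition above the mean of all tested compounds plus 3 SD, set per screening campaign (cut at about 45% in these data); inactive = the rest.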 What follows is part of a selection rich in actives, with near analogues and random picks from the rest.
Thanks in advance; please answer with one of these: y = active, n = inactive

Past entries and their recorded results:
[
  {
    "compound": "Cn1c2ccccc2c(=O)c2c(=O)n(Cc3ccco3)c(COc3ccccc3)nc21",
    "class": "y"
  },
  {
    "compound": "Cc1ccc(C)c(OCCC(=O)Nc2cccc(S(=O)(=O)N3CCCC3)c2)c1",
    "class": "n"
  },
  {
    "compound": "CC1(c2nnc(-c3ccncc3)o2)CC(c2cccnc2)=NO1 (centres undefined)",
    "class": "n"
  }
]

Hello, I am checking results. What call was entered for CN(C(=O)COC(=O)c1nc(Cl)ccc1Cl)C1CCS(=O)(=O)C1 (centres undefined) ?
n

Assay result, entry "COc1ccc(OC)c(NC(=O)N[C@H](Cc2ccccc2)C(=O)NN)c1" — outcome?
n

What outcome does the record of this test show for C[C@@H]1CC[C@@]2(OC1)O[C@H]1C[C@H]3[C@@H]4CC=C5C[C@@H](O)[C@H](O)C[C@]5(C)C4CC[C@]3(C)[C@H]1[C@@H]2C (some centres undefined) ?
n

* * *

- System: HCV core protein (residues 1-106) dimerization
- measurement-description: blockers of core106 self-association – biochemical, TR-FRET, high-throughput, primary screen (AID 1899)
- recorded-conditions: TR-FRET GST/Flag-core106 dimerization, 1536-well; at 5 µM
The campaign covered roughly 300,000 compounds. About 1,000 (0.33%) were called active.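 The calls were made as follows: active = inhibition above the mean of all tested compounds plus 3 SD, set per screening campaign (cut at about 45% in these data); inactive = the rest.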 For the sample, actives were picked, then their nearest neighbours and some compounds at random.
Please state which outcome applies, choosing from active, inactive

As a guide, the following entries are already answered.
[
  {
    "molecule": "O=C(O)CCCC(=O)N1N=C(c2ccco2)CC1c1ccco1 (configuration not stated)",
    "system-tested": "HCV core protein (residues 1-106) dimerization",
    "class": "inactive"
  },
  {
    "molecule": "COCCN1C=C2C(=O)C(C)(OC(=O)C3CCCC3)C(=O)C=C2C=C1c1ccsc1 (configuration not stated)",
    "system-tested": "HCV core protein (residues 1-106) dimerization",
    "class": "inactive"
  },
  {
    "molecule": "CCC(c1nnnn1Cc1ccco1)N(Cc1cc2cc(OC)ccc2[nH]c1=O)C1CCCCC1 (configuration not stated)",
    "system-tested": "HCV core protein (residues 1-106) dimerization",
    "class": "active"
  }
]

Can you look up the reported call for "C=C1CCN([C@@H](Cc2ccccc2)C(=O)N2CCOCC2)S(=O)(=O)c2ccccc21" for me?
inactive

Would you mind telling me which call this test gave "COc1ccc(NC(=O)c2cc(-c3ccc(C)o3)nc3ccccc23)cc1" ?
inactive

I would be grateful if you could indicate the recorded call for "O=C1COc2ccc(NC(=O)N3CCN(c4ccc(F)cc4)CC3)cc2N1" .
inactive

// param item: "O=C(Cc1ccc(S(=O)(=O)N2CCOCC2)s1)NCCC(c1ccccc1)c1ccccc1" ; yields the recorded call
inactive

Dear colleague, could you share the recorded outcome for "COc1ccc(OCC(=O)Nc2nnc(-c3ccco3)s2)cc1" when you have a moment?
active
